# system_name: T1, TIGIT on TIGIT-over expressing NFAT-Luc/Jurkat effector cells (GenScript reporter cell line) (UniProt Q495A1 22-244, limits assumed)
# T1 sequence (looked up): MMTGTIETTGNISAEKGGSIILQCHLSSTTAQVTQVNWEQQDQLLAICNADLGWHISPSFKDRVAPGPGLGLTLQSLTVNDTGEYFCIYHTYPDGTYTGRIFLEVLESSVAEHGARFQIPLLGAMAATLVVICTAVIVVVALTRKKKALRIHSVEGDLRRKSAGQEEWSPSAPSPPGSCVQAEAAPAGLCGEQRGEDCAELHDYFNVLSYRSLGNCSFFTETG
# test: cell-based or functional assay
assay_endpoint: Top (RLU)
// note: answer is a bare numeric in RLU

Lookup result for TIGIT-19 chimeric antibody (antibody, human IgG1, kappa, V domains shown, also called 19VH + 19VL) VH: QVQLQQPGPELVKPGTSVMLSCKASGYAFSRYSMYWVKQSHGKSLEWIAFIDPYNGGSTYNQRFRGKATLTVDKSSSTAYMHLNTLTSDDSAVYYCARGGDYGWYLGVWGAGTTVTVSS VL: DIQMTQSPASLSASVGETVTITCRPSENIYTYLSWYQQKRGKSPQLLVYNAKTLPENVPSRFSGSGSGTQFSLKIDSLQPEDFGNYYCQHHYGNPLTFGAGTKLELKR ; measured Top (RLU): 41600

Documented Top (RLU) of TIGIT-87 chimeric antibody (antibody, human IgG1, kappa, V domains shown, Full-length chimeric IgG1 kappa) VH: EVKLVESGPELVKPGASMKISCKASGYSFTGYTMNWVKQSHGKNLEWIGLINPYNGGTSYNQKFKGKATLTVDKSSSTAYMELLSLTSEDSAVYYCARYANRFENWFAYWGQGTLVTVSS VL: DIQMTQSPASLSASVGETVTITCRASENIYSYLAWYQQKQGKSPQLLVYNAKTLAEGVPSRFSGSGSGTQFSLKINSLQPEDFGSYYCQHHYGTPWTFGGGTKLEIKR : 17000

Query TIGIT-63 chimeric antibody (antibody, human IgG1, kappa, V domains shown, Full-length chimeric IgG1 kappa) VH: DVQLVESGGGLVQPGGSLSLSCAASGFTFTDYYMNWVRQPPGKALEWLGFIRNKANGYTTEYSASVKGRFTISRDNSQSILYLQMNALRAEDSATYYCARSTAWYFDVWGTGTTLTVSS VL: DIQMTQSPASLSASVGGTVTITCRASEHIYSYLAWYQQKQGKSPQLLVYNAKTLAEGVPSRFSGSGSGTQFSLKINSLQPKDFGSYYCQHHYGNPLTFGAGTKLELKR yields Top (RLU) of 28700

The measured Top (RLU) associated with TIGIT-94 chimeric antibody (antibody, human IgG1, kappa, V domains shown, Full-length chimeric IgG1 kappa) VH: EVKLVESGGGLVKPGGSLKLSCAASGFTFSTYTMSWVRQTPEKRLEWVATISSGGTYTHYPDSVKGRFTISRDNAKNTLYLQMSSLKSEDTAMYYCTRWFLSLYAMDYWGQGTSVTVSS VL: DIVMTQSTSSLSASLGDRVTISCRASQDINNFLNWYQQKPAGTVDLLIYYTSRLHSGVPSRFSGSGSGTDYSLTISNLDQEDIATYFCQQGNTFPYTFGGGTRLEIKR reads 59800

Attribution: patent US20260139048A1
